EXPERIMENT: modulators of MEP2-GFP levels in yeast, confirmation, S. cerevisiae, flow cytometry GFP, cherry picks (AID 2272);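 also: ratio of well signal to plate DMSO mean so 100% equals DMSO level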
CONDITION INFO: S. cerevisiae MEP2-GFP strain, 3 h, at 10 µM, hits give high values
EXPERIMENTAL READOUT: GFP response vs DMSO (%)
Only the number, expressed in %, is required.

Entry under review: "Cc1ncc2c(n1)-c1cc(F)ccc1SC2" . Reported GFP response vs DMSO?
109

Look up GFP response vs DMSO for this molecule: "CC(C)c1ccc(C(=O)N/N=C/c2cccc(Cl)c2Cl)cc1"
103

Requested field: GFP response vs DMSO. Item: O=C1CC(c2ccccc2)CN1S(=O)(=O)c1ccccc1 (stereo unspecified)
105

So what's the measured GFP response vs DMSO for this one? "COc1ccccc1-c1noc(-c2cccnc2)n1"
108

Consider the molecule shown here: "C/C(=N\NC(=O)c1cc2ccccc2cc1O)c1ccccn1" What is its recorded GFP response vs DMSO?
126

Given the entry CN1CCN(CC(=O)N2CCn3c4c(c5cc(C6CCCCC6)ccc53)CCCC42)CC1 (stereo unspecified) , report its measured GFP response vs DMSO.
108

Given "CCSC1=NCCN1S(=O)(=O)c1ccc(F)cc1" , state its recorded GFP response vs DMSO.
103

Report GFP response vs DMSO for "N=c1n(CCN2CCCCC2)c2ccccc2n1CC(=O)c1ccc(Cl)c(Cl)c1" please.
100

Please give the measured GFP response vs DMSO for this molecule: "CCc1nnc(NC(=O)c2ccc(S(=O)(=O)N(CCOC)CCOC)cc2)o1"
96.2

Given "CCOc1ccccc1/C=C/C(=O)c1ccc(Cl)cc1" , state its recorded GFP response vs DMSO.
98.3

Given the entry "CC(=O)Nc1ccc(-c2csc(NC(=O)c3ccc(C)o3)n2)cc1" , report its measured GFP response vs DMSO.
100
